Recorded values, source patent US20230408517A1.

# systemName: rSARS2-B.1.617.2 S aa16-1211 10+4x aa mut., C-His (SARS-CoV-2, UniProt P0DTC2 16-1211)
# assayComment: flow cytometry, blocking of binding to hACE-2 cells
reportedEndpoint: percent blocking (%)
One number for each entry, in %.

Illustrative cases are given below, each with its answer.
INSERT INTO assay_data (binder, reportedendpoint, valuereported) VALUES
  ('1035716 (antibody, V domains shown) VH: EVLLQQSGPELVKPGASVKIPCKASGYTFTDYNMDWVKQSHGKSLEWIGDINPNNGGTIYNQKFKGKATLTVDKSSSTAYMELRSLTSEDTAVYYCAREGYGNYFDYWGQGTTLTVSS VL: DILLTQSPAILSVSPGERVSFSCRASQSIGTSIHWYQQRTNGSPRLLIKYASESISGIPSRFSGSGSGTDYTLSINSVESEDIADYYCQQSYSWPTTFGAGTKLELK', 'percent blocking', 89.3),
  ('1035211 (antibody, V domains shown) VH: QVQLQQSGAELARPGASVKMSCKASGYTFTNYTMHWVKQRPGQGLEWIGYINPSSGYTNYNQKFKDKATLTADKSSSTAYMQLSSLTSEDSAVYYCARRNPLYAMDYWGQGTSVTVSS VL: DIKMTQSPSSMYASLGERVTITCKASQDINSYLNWFQQKPGKSPKTLIYRANRLVDGVPSRFSGSGSGQDYSLTISSLEFEDMGIYYCLQYDEFPYTFGGGTKLEIK', 'percent blocking', 0);

Now for the binder whose percent blocking we want.
Please look at this binder and report its percent blocking: 1035762 (antibody, V domains shown) VH: EVQLQQSGPELVKPGASVKISCKTSGYTFTEYTMHWVKQSHGKSLEWIGGINPNNGDTGYNQKFKGKATLTVDKSSSTAYMELRSLTFEDSAVYYCARDGYPLYYAMDYWGQGTSVTVSS VL: DIQMTQSPSSLSASLGERVSLTCRASQEISGYLCWLQQKPDGTIKRLIYAASTLDSAVPKRFSGSRSGSDYSLTISSLESEDFADFYCLQYASYPWTFGGGTKLEIK
18.7
